Assay explanation: Gibbs free energy for photoinduced electron transfer (equation 6)
Format: physicochemical
Condition label: PeT from chromanol to singlet excited state
Parameter measured: ΔGeT (Singlet), Gibbs free energy for PeT (eV)

CC(=O)OCC1=C2C(C)=C(Br)C(C)=[N+]2[B-](F)(F)n2c(C)c(Br)c(C)c21 [Compound 6]: −0.43
CC(=O)OCC1=C2C(C)=C(I)C(C)=[N+]2[B-](F)(F)n2c(C)c(I)c(C)c21 [Compound 5]: −0.4
CC1=C(Br)C(C)=[N+]2C1=C(C)c1c(C)c(Br)c(C)n1[B-]2(F)F [Compound 4]: −0.38
CC1=C(I)C(C)=[N+]2C1=C(C)c1c(C)c(I)c(C)n1[B-]2(F)F [Compound 3]: −0.37

====

Assay explanation: Time-resolved fluorescence (fluorescence lifetime, TCSPC)
Format: physicochemical
Condition label: acetonitrile, room temperature
Examples of compounds with documented kdec (fluorescence decay rate constant) follow.

# annotated cases, reported kdec (fluorescence decay rate constant) shown
CC(=O)OCC1=C2C(C)=C(Br)C(C)=[N+]2[B-](F)(F)n2c(C)c(Br)c(C)c21: 66.7 ± 0.3 × 10^7 s^−1
CC1=C(I)C(C)=[N+]2C1=C(C)c1c(C)c(I)c(C)n1[B-]2(F)F: 476.2 ± 0.7 × 10^7 s^−1
CC1=C(I)C(C)=[N+]2C1=C(COC(=O)C1(C)CCc3c(C)c(O)c(C)c(C)c3O1)c1c(C)c(I)c(C)n1[B-]2(F)F (racemic): 555.6 ± 0.6 × 10^7 s^−1
CC1=C(Br)C(C)=[N+]2C1=C(C)c1c(C)c(Br)c(C)n1[B-]2(F)F: 55.3 ± 0.2 × 10^7 s^−1

Problem: Specify measured kdec (fluorescence decay rate constant) for CC(=O)OCC1=C2C(C)=C(I)C(C)=[N+]2[B-](F)(F)n2c(C)c(I)c(C)c21 .
Solution: 625.0 ± 0.7 × 10^7 s^−1

====

Assay explanation: Absorption and steady-state fluorescence, fluorescence quantum yield in acetonitrile
Format: physicochemical
Condition label: acetonitrile, room temperature
Procedure: Absorption spectra were recorded using a Hitachi U-2800 UV-vis-NIR spectrophotometer. Luminescence spectra were recorded using a PTI QuantaMaster spectrofluorimeter using 10×10 mm quartz cuvettes and corrected for detector sensitivity. The steady-state fluorescence spectra were recorded between 500-800 nm (depending on each compound) upon exciting at the wavelength of the absorbance maxima. […] Fluorescence was recorded every 1 nm using 0.1 s integration time. […]
Parameter measured: abs λmax (nm)

CC(=O)OCC1=C2C(C)=C(Br)C(C)=[N+]2[B-](F)(F)n2c(C)c(Br)c(C)c21 [Compound 6]: 543
CC1=C(Br)C(C)=[N+]2C1=C(C)c1c(C)c(Br)c(C)n1[B-]2(F)F [Compound 4]: 515
CC(=O)OCC1=C2C(C)=C(I)C(C)=[N+]2[B-](F)(F)n2c(C)c(I)c(C)c21 [Compound 5]: 550
CC1=C(Br)C(C)=[N+]2C1=C(CC1(C)CCc3c(C)c(O)c(C)c(C)c3O1)c1c(C)c(Br)c(C)n1[B-]2(F)F (stereo not drawn) [Compound 7]: 532
CC1=C(I)C(C)=[N+]2C1=C(COC(=O)C1(C)CCc3c(C)c(O)c(C)c(C)c3O1)c1c(C)c(I)c(C)n1[B-]2(F)F (racemic) [Compound 8]: 552
CC1=C(I)C(C)=[N+]2C1=C(C)c1c(C)c(I)c(C)n1[B-]2(F)F [Compound 3]: 521

====

Assay explanation: Phosphorescence studies at 77 K
Type: physicochemical
Parameters: unit not given beside the values
Condition label: from phosphorescence emission spectra, 4:1 EtOH:MeOH
Parameter measured: E (Triplet), energy of the lowest triplet state

CC(=O)OCC1=C2C(C)=C(I)C(C)=[N+]2[B-](F)(F)n2c(C)c(I)c(C)c21: 1.54
CC1=C(Br)C(C)=[N+]2C1=C(C)c1c(C)c(Br)c(C)n1[B-]2(F)F: 1.71
CC1=C(I)C(C)=[N+]2C1=C(C)c1c(C)c(I)c(C)n1[B-]2(F)F: 1.70
CC(=O)OCC1=C2C(C)=C(Br)C(C)=[N+]2[B-](F)(F)n2c(C)c(Br)c(C)c21: 1.53

====

Examples of compounds with documented drop in φf following inclusion of I or Br atoms follow.
Assay explanation: Absorption and steady-state fluorescence, fluorescence quantum yield in acetonitrile
Format: physicochemical
Condition label: relative to unsubstituted analogue (1 for 3 and 4; 2 for 5 and 6)

# annotated cases, reported drop in φf following inclusion of I or Br atoms shown
CC(=O)OCC1=C2C(C)=C(Br)C(C)=[N+]2[B-](F)(F)n2c(C)c(Br)c(C)c21: ~6 fold
CC1=C(Br)C(C)=[N+]2C1=C(C)c1c(C)c(Br)c(C)n1[B-]2(F)F: ~4 fold

Shifting focus to the compound that follows.
Problem: Specify measured drop in φf following inclusion of I or Br atoms for CC1=C(I)C(C)=[N+]2C1=C(C)c1c(C)c(I)c(C)n1[B-]2(F)F .
Solution: 27 fold

====

Examples of compounds with documented knr (non-radiative decay rate constant, (1−φf)×kdec) follow.
Assay explanation: Time-resolved fluorescence (fluorescence lifetime, TCSPC)
Type: physicochemical
Condition label: acetonitrile, room temperature

CC1=C(I)C(C)=[N+]2C1=C(C)c1c(C)c(I)c(C)n1[B-]2(F)F: 463.0 ± 0.7 × 10^7 s^−1
CC(=O)OCC1=C2C(C)=C(I)C(C)=[N+]2[B-](F)(F)n2c(C)c(I)c(C)c21: 582.0 ± 0.7 × 10^7 s^−1
CC1=C(I)C(C)=[N+]2C1=C(COC(=O)C1(C)CCc3c(C)c(O)c(C)c(C)c3O1)c1c(C)c(I)c(C)n1[B-]2(F)F (racemic): 551.0 ± 0.5 × 10^7 s^−1
CC(=O)OCC1=C2C(C)=C(Br)C(C)=[N+]2[B-](F)(F)n2c(C)c(Br)c(C)c21: 57.4 ± 0.2 × 10^7 s^−1

Shifting focus to the compound that follows.
Problem: Specify measured knr (non-radiative decay rate constant, (1−φf)×kdec) for CC1=C(Br)C(C)=[N+]2C1=C(C)c1c(C)c(Br)c(C)n1[B-]2(F)F .
Solution: 44.2 ± 0.2 × 10^7 s^−1

====

Assay explanation: Electrochemical studies (cyclic voltammetry)
Assay type: physicochemical
Design: unit not given here
Condition label: vs ferrocene, acetonitrile
Parameter measured: E^oB^+·/B (reversible oxidation potential)

CC1=C(Br)C(C)=[N+]2C1=C(C)c1c(C)c(Br)c(C)n1[B-]2(F)F [Compound 4]: 0.89
CC1=C(I)C(C)=[N+]2C1=C(C)c1c(C)c(I)c(C)n1[B-]2(F)F [Compound 3]: 0.88
CC(=O)OCC1=C2C(C)=C(I)C(C)=[N+]2[B-](F)(F)n2c(C)c(I)c(C)c21 [Compound 5]: 0.91
CC(=O)OCC1=C2C(C)=C(Br)C(C)=[N+]2[B-](F)(F)n2c(C)c(Br)c(C)c21 [Compound 6]: 0.94

====

Assay explanation: Time-resolved fluorescence (fluorescence lifetime, TCSPC)
Type: physicochemical
Condition label: 4 vs 1, 6 vs 2, 3 vs 1, 5 vs 2
Parameter measured: increase in kdec upon halogen substitution (fold)

A = CC1=C(Br)C(C)=[N+]2C1=C(C)c1c(C)c(Br)c(C)n1[B-]2(F)F
B = CC(=O)OCC1=C2C(C)=C(Br)C(C)=[N+]2[B-](F)(F)n2c(C)c(Br)c(C)c21
Problem: Which record shows the lower increase in kdec upon halogen substitution: the first, A , or the second, B ? Use the label to indicate which entry you chose.
Solution: A
(A: 3.1 fold, B: 4.5 fold)
